// provenance: patent US9839642B2

Recorded pIC50 for the following compounds
testTarget: VIM-1 (Pseudomonas aeruginosa, UniProt A0A0F7KYQ8)
assay: Enzyme activity: determination of IC50, fluorescence assay with CCF2-FA substrate
Type: biochemical
conditionInfo: VIM-1 enzyme 30 pM, CCF2-FA 1.25 μM, 2 hours at 25° C.; read-out: VIM1 IC50
When answering, recall that pIC50 equals minus log10 of the concentration in mol/L, and write that number alone.

A selection of reference data follows.
compound	testTarget	pIC50
CCC[C@H](C(=O)O)[C@H](Cc1ccc(C(=O)NCCO)cc1)c1nnn[nH]1	VIM-1 (Pseudomonas aeruginosa, UniProt A0A0F7KYQ8)	8.57
CC(C)C[C@H](C(=O)O)[C@H](Cc1ccc(N2CCC(N)C2)nc1)c1nnn[nH]1 (some centres unmarked)	VIM-1 (Pseudomonas aeruginosa, UniProt A0A0F7KYQ8)	8.34
CCC[C@H](C(=O)O)[C@H](Cc1ccc(C(=O)NC)cc1)c1nnn[nH]1	VIM-1 (Pseudomonas aeruginosa, UniProt A0A0F7KYQ8)	7.00
CC(C[C@H](C(=O)O)[C@H](Cc1ccc(N)nc1)c1nnn[nH]1)c1ccccc1 (some centres unmarked)	VIM-1 (Pseudomonas aeruginosa, UniProt A0A0F7KYQ8)	7.66
CCC[C@H](C(=O)O)[C@H](Cc1cccc(-c2cncc(CN3CCCCC3)c2)c1)c1nn[nH]n1	VIM-1 (Pseudomonas aeruginosa, UniProt A0A0F7KYQ8)	8.19

[in] May I ask what pIC50 has been recorded for `CCC[C@H](C(=O)O)[C@H](Cc1cccc(-c2ccnc(N3CCNCC3)c2)c1)c1nn[nH]n1` ?
[out] 8.46

[in] May I ask what pIC50 has been recorded for `CC(C)(C)[C@H](C(=O)O)[C@H](Cc1ccc(O)nc1)c1nnn[nH]1` ?
[out] 7.60

[in] May I ask what pIC50 has been recorded for `CCC[C@H](C(=O)O)[C@H](Cc1ccccc1-c1ccc(S(N)(=O)=O)cc1)c1nn[nH]n1` ?
[out] 7.89
